B1: HESX1 (parent)
chain: QKKDCVPLMKPHRPWADTCSSSGK

Variants of: B1
protocol: protein stability index of a GFP-peptide fusion (GPS, HEK-293T) (PSI 1-6); higher = more stable;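 also: lentivirally expressed fusions sorted by FACS into six bins by GFP to DsRed ratio, PSI derived from sequencing read proportions per bin multiplied by bin number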
runConditions: c terminus: a fixed tail appended
Criterion: protein stability index meeting or surpassing 4. Met: Condition met. Not met: Condition not met.

{"columns": ["sequenceString", "label"],
 "data": [
  ["QKKDCVPLMKPHRPWADRCSSSGK", "Condition not met"],
  ["QKKDCVPLMKPHRPWADTCSSMGK", "Condition not met"],
  ["KKKDCVPLMKPHRPWADTCSSSGK", "Condition not met"],
  ["QKKDCEPLMKPHRPWADTCSSSGK", "Condition met"],
  ["QKSDCVPLMKPHRPWADTCSSSGK", "Condition not met"],
  ["QKKDCVPLMKPHRPWADTCSSCGK", "Condition not met"],
  ["QKKDCVPLMNPHRPWADTCSSSGK", "Condition met"],
  ["QKKDCVPLMKPHRYWADTCSSSGK", "Condition not met"],
  ["QKKDCVPLMKPHRPWADTCSQSGK", "Condition not met"],
  ["QKKDCVPLMKPHRPWASTCSSSGK", "Condition not met"],
  ["QKKDCVPLNKPHRPWADTCSSSGK", "Condition not met"],
  ["QKKDCVPLMKPHRPWANTCSSSGK", "Condition not met"],
  ["QKKDCVPLMKPHRCWADTCSSSGK", "Condition not met"],
  ["QKKDCVPLMKPHRPWADTHSSSGK", "Condition not met"],
  ["QKKDIVPLMKPHRPWADTCSSSGK", "Condition not met"],
  ["QKKDCVPLMKPHRPWADTCFSSGK", "Condition not met"],
  ["QKKDCVPLMKPRRPWADTCSSSGK", "Condition met"],
  ["QKKDCVPLMKPHRPMADTCSSSGK", "Condition met"]
]}
